The measurements presented in this section are drawn from PubChem BioAssay AID686971.

Assay: qHTS for induction of synthetic lethality in tumor cells producing 2HG: qHTS for the HT-1080-IDH1KD cell line
Conditions: HT-1080 IDH1 knockdown viability, ATP luminescence, 48 h; series mostly up to 46.1 µM
Among all 360,000 compounds or so, about 7,500 (2.1%) were called active. Not shown: some 8% with an inconclusive outcome. Calls follow the shape of the dose curve; as a rule, active = well fitted cell-killing curve with a large enough effect; inconclusive = small, poorly fitted or top-dose-only effect, or effect the other way, or another doubt; inactive = no such curve, though single readings can be large or run the other way. The list comes from a sample in which actives are over-represented; it also holds close analogues and randomly drawn compounds.
Bench note: report the call from yes (1) (active), no (0) (inactive)

Check out these entries, answers already filled in.
Nc1ncnc2c1ncn2[C@@H]1O[C@H](C(=O)N2CCCN(Cc3ccccc3F)CC2)[C@@H](O)[C@H]1O    no (0)
COc1ccccc1OCCOc1ccc(/C=N/n2cnnc2)cc1    yes (1)
CCCNC(=O)c1cc(C2CCCCN2S(=O)(=O)c2ccc(C#N)cc2)on1 (centres undefined)    no (0)

Turning to the following compound.
Ask: Hi team, can someone confirm the assay call for CCCCc1nnc(NC(=O)CS(=O)(=O)Cc2ccccc2)s1 ?
Reply: no (0)

----------
Test: qHTS for induction of synthetic lethality in tumor cells producing 2HG: qHTS for the HT-1080-IDH1KD cell line
Conditions: HT-1080 IDH1 knockdown viability, ATP luminescence, 48 h; series mostly up to 46.1 µM
Source text: Unbiased genomic sequencing for 22 glioma genomes found recurrent mutation of IDH1 on chromosome 2q33, a gene encoding the cytosolic isoform of IIDH1 associated with the tri-carboxylic acid cycle (TCA) that catalyzes the oxidative decarboxylation of isocitrate, yielding alpha-ketoglutarate and CO2 via NADP+ to NADPH conversion. […] Concentration-response curves were fitted to the signals arising from the resulting luminescence. […]
About 7,500 (2.1%) of roughly 360,000 compounds were called active. About 8% were inconclusive and are not listed. Calls come from the whole dose curve; as a rule, active = well fitted cell-killing curve with a large enough effect; inconclusive = small, poorly fitted or top-dose-only effect, or effect the other way, or another doubt; inactive = no such curve, though single readings can be large or run the other way. The sample as a whole holds a higher share of actives than the screen did.
Answer with one of the outcomes 1 (yes) (active), 0 (no) (inactive)

Illustrative cases are given below, each with its answer.
CC1(C)CCc2cc(S(=O)(=O)N3CCN(c4nc(-c5cccs5)nc5ccccc45)CC3)ccc2O1    0 (no)
COc1ccc2c(c1)C(C)=CC(C)(C)N2C(=O)CNCc1ccc2c(c1)OCO2    1 (yes)
COc1ccc2c(c1)c(=Cc1ccc(N(C)C)cc1)c1cc(-c3ccccc3)[n+](C)n12    1 (yes)

Ask: Which result was noted for this compound in the test: CCOC(=O)C1CCN(c2c(Nc3cc(C)cc(C)c3)c(=O)c2=O)CC1
Reply: 1 (yes)

Ask: Recorded test outcome, item Cc1cc2oc(=O)cc(CN(C)Cc3ccccc3)c2cc1Cl
Reply: 0 (no)

Ask: Can you look up the reported call for COC(=O)[C@@]1(Cc2ccc(F)cc2)[C@H]2c3cc(C(=O)N4CCCC4)n(C[C@H](O)CO)c3C[C@H]2CN1C(=O)c1ccccc1 for me?
Reply: 0 (no)

Ask: For Cc1ccc(S(=O)(=O)N[C@H]2CCC[C@@H]2O)cc1 , which call appears in the assay record?
Reply: 0 (no)

Ask: Write down the call the test reported for this compound. Item: O=C(C(=O)N1CCC(c2ccccc2)CC1)c1ccccc1
Reply: 0 (no)

Ask: Could you check what this test reported for COc1ccc(NC(=O)NCc2ccc3c(c2)OCO3)c(OC)c1 ?
Reply: 0 (no)
